Catalogue of differential viability (reversal) values
# Experiment Description: reversal of MRP1-mediated doxorubicin resistance, pilot screen, H69AR cells, doxorubicin co-treatment (AID 601)
# Assay Context: H69AR cells + 2 uM doxorubicin, CellTiter-Glo, 72 h; at 10 µM; active compounds read high
Property Label: differential viability (reversal) (%)

>>> result("COc1ccc(-c2noc(-c3ccccc3C(=O)Nc3cccnc3)n2)cc1OC")
14.8
>>> result("CCc1ccccc1N=C1SCC(=O)N1C")
10.1
>>> result("COc1ccc(C(c2nnnn2C2CCCC2)N2CCN(C3CCCC3)CC2)cc1OC (stereo not given)")
28.3
>>> result("COc1ccc(S(=O)(=O)NCC(c2cccnc2)N2CCN(c3ccc(F)cc3)CC2)cc1C (stereo not given)")
-0.665
>>> result("O=S(=O)(c1cccc2nsnc12)N1CCN(c2ncccn2)CC1")
-7.98
